Molecular target: LmjIPCS (inositol phosphorylceramide synthase from L. major) (Leishmania major, UniProt E9AFX2)
Sequence (E9AFX2 whole entry): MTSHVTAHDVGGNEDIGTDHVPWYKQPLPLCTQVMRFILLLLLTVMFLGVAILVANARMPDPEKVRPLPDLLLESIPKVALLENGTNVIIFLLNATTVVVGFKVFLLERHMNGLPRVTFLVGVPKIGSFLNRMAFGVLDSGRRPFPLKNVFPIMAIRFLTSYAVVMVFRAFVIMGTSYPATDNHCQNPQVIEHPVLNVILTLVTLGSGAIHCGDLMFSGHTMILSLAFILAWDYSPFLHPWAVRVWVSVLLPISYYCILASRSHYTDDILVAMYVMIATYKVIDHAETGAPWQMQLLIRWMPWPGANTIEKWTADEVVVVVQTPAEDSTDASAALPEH
Experiment: biochemical
Format: biochemical
Conditions: read-out: 20mM inhibition LmjIPCS
VALUE KIND: inhibition at 20000 µM (%)
Just the number please, in %, no unit attached.

# input Entry NC(=O)c1ccc(N)nc1 [6-AMINONICOTINAMIDE] needs its inhibition at 20000 µM filled in; supply it.
# output 7.54

# input Entry COCCc1ccc(OCC(O)CNC(C)C)cc1 (stereo not shown) needs its inhibition at 20000 µM filled in; supply it.
# output 21

# input Entry C[C@]12CC[C@@H]3c4ccc(O)cc4CC[C@H]3[C@@H]1CC[C@@H]2O needs its inhibition at 20000 µM filled in; supply it.
# output -5.65

# input Entry C/C=C(/C)C(=O)O[C@H]1CC[C@@]2(C)[C@@H]3CC[C@H]4[C@]5(O)C[C@H](O)[C@@]6(O)[C@@H](CN7C[C@@H](C)CC[C@H]7[C@@]6(C)O)[C@]5(O)C[C@@]42O[C@]13O needs its inhibition at 20000 µM filled in; supply it.
# output 10

# input Entry Cc1cccc(Nc2ccncc2S(=O)(=O)NC(=O)NC(C)C)c1 [TORSEMIDE] needs its inhibition at 20000 µM filled in; supply it.
# output 29

# input Entry C/C=C(/C(=C/C)c1ccc(O)cc1)c1ccc(O)cc1 needs its inhibition at 20000 µM filled in; supply it.
# output -4

# input Entry Nc1nc2c(ncn2COCCO)c(=O)[nH]1 needs its inhibition at 20000 µM filled in; supply it.
# output 5

# input Entry C=C(C)[C@@H]1[C@H]2OC(=O)[C@@H]1[C@]1(O)C[C@H]3O[C@]34C(=O)O[C@H]2[C@]14C needs its inhibition at 20000 µM filled in; supply it.
# output 13

# input Entry CN[C@@H](C)[C@@H](O)c1ccccc1 needs its inhibition at 20000 µM filled in; supply it.
# output 2.14

# input Entry CO[C@@H]1[C@@H](OC(N)=O)[C@@H](O)[C@H](Oc2ccc3c(O)c(NC(=O)c4ccc(O)c(CC=C(C)C)c4)c(=O)oc3c2C)OC1(C)C needs its inhibition at 20000 µM filled in; supply it.
# output 16

# input Entry CC(COc1ccccc1)N(CCCl)Cc1ccccc1 (stereo not shown) needs its inhibition at 20000 µM filled in; supply it.
# output 31

# input Entry C[C@H]1C(=O)O[C@@H]2CCN3CC=C(COC(=O)[C@](C)(O)[C@]1(C)O)[C@H]23 needs its inhibition at 20000 µM filled in; supply it.
# output 2

# input Entry CC[C@@H](C(=O)[C@@H](C)[C@@H](O)[C@H](C)[C@@H]1O[C@@H]([C@@H](CC)C(=O)O)CC[C@@H]1C)[C@H]1O[C@]2(C=C[C@@H](O)[C@]3(CC[C@@](C)([C@H]4CC[C@](O)(CC)[C@H](C)O4)O3)O2)[C@H](C)C[C@@H]1C needs its inhibition at 20000 µM filled in; supply it.
# output 29

# input Entry CC(=O)N[C@@H](CC(=O)N[C@@H](CCC(=O)O)C(=O)O)C(=O)O needs its inhibition at 20000 µM filled in; supply it.
# output 1.82

# input Entry CO[C@@]1(NC(=O)Cc2cccs2)C(=O)N2C(C(=O)O)=C(COC(N)=O)CS[C@@H]21 needs its inhibition at 20000 µM filled in; supply it.
# output 3.72

# input Entry Cc1ncc([N+](=O)[O-])n1CC(C)O (stereo not shown) needs its inhibition at 20000 µM filled in; supply it.
# output 12
